- Test Target: T1, human GIP receptor (GIPR) (human, UniProt P48546-1 22-466)
- T1 construct: human GIPR (NP_000155), untagged, expressed in HEK293 cells at low, medium or high density; also called glucose-dependent insulinotropic polypeptide receptor; source: HEK293 clonal cell lines, stably transfected (pcDNA3.1)
- T1 sequence (looked up): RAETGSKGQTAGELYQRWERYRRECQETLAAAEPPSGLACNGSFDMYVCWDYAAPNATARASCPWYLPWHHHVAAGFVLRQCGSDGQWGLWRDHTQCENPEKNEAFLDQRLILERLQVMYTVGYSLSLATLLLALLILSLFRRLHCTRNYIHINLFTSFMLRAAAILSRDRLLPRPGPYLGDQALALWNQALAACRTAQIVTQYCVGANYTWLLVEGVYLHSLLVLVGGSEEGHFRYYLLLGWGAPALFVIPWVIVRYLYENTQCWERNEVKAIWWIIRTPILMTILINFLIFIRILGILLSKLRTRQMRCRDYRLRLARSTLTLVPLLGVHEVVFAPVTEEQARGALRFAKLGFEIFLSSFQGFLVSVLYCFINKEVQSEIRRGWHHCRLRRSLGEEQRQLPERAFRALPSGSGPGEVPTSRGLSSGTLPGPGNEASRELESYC
- Method Summary: radioligand binding; competition with [125I]GIP(1-42)OH (GIPR) or [125I]GLP-1(7-36)NH2 (GLP-1R), ~0.12–0.20 nM, on membranes of HEK293 cells expressing the human receptor held on WGA-PVT SPA beads; 1.0 mM MgCl2, 2.5 mM CaCl2, 0.003% w/v Tween-20, 0.1% w/v bacitracin, 25 mM HEPES pH 7.4; 18 hours at room temperature; Ki by the Cheng-Prussoff correction
- Details: one partner purified
Measurement Kind: Ki

// query # input binder: HAEGTFTSDVSSYLEGQAAKEFIAWLVRGRG (Aib at the 2nd residue (written X in the letters); C18 diacid-γGlu-(AEEA)2 on the lysine at the 20th residue) [Semaglutide] ; wanted: its Ki
// result > 500 nM

FYI, the data here is from paper PMC7526454.
